- tested target: human Nav1.7 (Homo sapiens, UniProt Q15858)
- Construct: expressed in transfected cells
- Sequence (Q15858 whole entry): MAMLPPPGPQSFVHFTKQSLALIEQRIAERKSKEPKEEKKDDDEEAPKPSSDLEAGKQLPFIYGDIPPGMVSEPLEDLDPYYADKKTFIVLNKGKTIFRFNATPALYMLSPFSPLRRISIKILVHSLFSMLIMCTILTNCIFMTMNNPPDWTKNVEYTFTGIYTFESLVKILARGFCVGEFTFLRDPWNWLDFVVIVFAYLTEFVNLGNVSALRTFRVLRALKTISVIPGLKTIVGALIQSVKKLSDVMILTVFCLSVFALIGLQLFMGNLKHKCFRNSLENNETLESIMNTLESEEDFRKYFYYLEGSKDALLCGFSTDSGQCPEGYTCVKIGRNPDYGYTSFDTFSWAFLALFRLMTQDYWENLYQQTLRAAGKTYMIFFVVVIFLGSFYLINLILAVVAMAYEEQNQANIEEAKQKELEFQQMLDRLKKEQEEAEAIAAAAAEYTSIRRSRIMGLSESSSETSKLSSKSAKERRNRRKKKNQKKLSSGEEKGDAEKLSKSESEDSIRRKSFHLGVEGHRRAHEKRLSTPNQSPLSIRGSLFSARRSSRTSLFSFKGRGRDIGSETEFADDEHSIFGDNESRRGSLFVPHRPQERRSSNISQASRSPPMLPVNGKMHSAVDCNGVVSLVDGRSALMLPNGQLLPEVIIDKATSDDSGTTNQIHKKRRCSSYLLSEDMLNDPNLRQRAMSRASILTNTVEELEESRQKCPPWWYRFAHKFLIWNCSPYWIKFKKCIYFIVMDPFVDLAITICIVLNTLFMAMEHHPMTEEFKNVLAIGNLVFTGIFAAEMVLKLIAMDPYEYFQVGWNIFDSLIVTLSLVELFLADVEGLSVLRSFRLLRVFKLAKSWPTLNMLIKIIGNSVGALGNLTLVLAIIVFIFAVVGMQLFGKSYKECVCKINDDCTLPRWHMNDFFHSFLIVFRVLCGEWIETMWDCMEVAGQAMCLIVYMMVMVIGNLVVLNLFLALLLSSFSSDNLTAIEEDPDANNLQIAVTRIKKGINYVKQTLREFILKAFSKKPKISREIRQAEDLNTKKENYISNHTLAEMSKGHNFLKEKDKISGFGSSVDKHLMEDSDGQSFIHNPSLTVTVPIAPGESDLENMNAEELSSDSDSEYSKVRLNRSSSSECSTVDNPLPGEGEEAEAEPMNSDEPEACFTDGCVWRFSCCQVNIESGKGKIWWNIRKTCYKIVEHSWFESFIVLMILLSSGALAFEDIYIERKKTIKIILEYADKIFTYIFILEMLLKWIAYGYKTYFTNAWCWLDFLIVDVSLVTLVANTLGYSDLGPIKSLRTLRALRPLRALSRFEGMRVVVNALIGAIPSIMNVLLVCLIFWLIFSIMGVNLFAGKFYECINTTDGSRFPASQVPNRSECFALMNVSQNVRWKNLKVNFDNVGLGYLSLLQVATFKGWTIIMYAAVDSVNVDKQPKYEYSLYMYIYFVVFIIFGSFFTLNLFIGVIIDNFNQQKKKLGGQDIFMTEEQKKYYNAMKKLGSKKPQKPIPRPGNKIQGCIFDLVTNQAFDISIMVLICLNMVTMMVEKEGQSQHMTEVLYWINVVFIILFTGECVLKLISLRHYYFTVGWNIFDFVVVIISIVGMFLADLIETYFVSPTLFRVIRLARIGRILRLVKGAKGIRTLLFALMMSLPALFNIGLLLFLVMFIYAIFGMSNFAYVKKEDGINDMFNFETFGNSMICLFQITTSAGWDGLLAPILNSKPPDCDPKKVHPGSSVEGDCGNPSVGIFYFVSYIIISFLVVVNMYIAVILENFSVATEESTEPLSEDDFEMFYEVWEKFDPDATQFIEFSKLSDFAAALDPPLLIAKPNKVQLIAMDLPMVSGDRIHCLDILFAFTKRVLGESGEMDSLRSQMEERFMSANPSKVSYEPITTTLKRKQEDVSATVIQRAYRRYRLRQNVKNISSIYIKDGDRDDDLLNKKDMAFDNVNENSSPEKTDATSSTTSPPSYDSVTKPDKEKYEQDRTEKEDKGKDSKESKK
- protocol description: PatchXpress sodium current measurement, inactivated state block, Nav1.7
- Assay type: cell-based
- condition description: potency for the Nav 1.7 sodium ion channel (1.7=), channels stably expressed in HEK 293 cells, double-pulse protocol, 22° C.
measure: pIC50
Give only the number. pIC50 is defined as minus log10 of concentration in molar units.

Could you tell me which pIC50 is on file for C[C@H](c1ccccc1C1=C[C@@H]2CC[C@H](C1)N2)n1c(=O)oc2cc(S(=O)(=O)Nc3cccc(F)n3)c(F)cc21 ?
7.09

###

- tested target: human Nav1.5 (Homo sapiens)
- Construct: expressed in transfected cells
- protocol description: PatchXpress sodium current measurement, inactivated state block, Nav1.5
- Type: cell-based
- condition description: determined by PatchXpress measurement, HEK 293 cells
measure: ratio of Nav 1.5:Nav 1.7 potency
Simply state the number, no unit and no words.

See these solved cases before continuing.
| molecule | observed result |
| --- | --- |
| C[C@H](c1cccc(CCCN)c1)n1c(=O)oc2cc(S(=O)(=O)Nc3cccc(F)n3)c(F)cc21 | 380 |
| C[C@H](c1cccc(C#CC2CCCC2N)c1)n1c(=O)oc2cc(S(=O)(=O)Nc3cccc(F)n3)c(F)cc21 (stereo partly shown) | 64 |
| C[C@H](c1ccccc1C1=CCNCCC1)n1c(=O)oc2cc(S(=O)(=O)Nc3cccc(F)n3)c(F)cc21 | 239 |

Please find the next molecule below.
Could you tell me which ratio of Nav 1.5:Nav 1.7 potency is on file for Cc1cc2c(cc1S(=O)(=O)Nc1cccc(F)n1)oc(=O)n2[C@H](C)c1cccc2c1CNCC2 ?
200

###

- tested target: human Nav1.7 (Homo sapiens)
- Construct: expressed in transfected cells
- protocol description: PatchXpress sodium current measurement, inactivated state block, Nav1.7
- Format: cell-based
- condition description: channels stably expressed in HEK 293 cells, double-pulse protocol, 22° C., read-out: potency for the Nav 1.7 sodium ion channel (1.7=)
- Procedure: Cell Based Assays for Nav 1.7 and Nav 1.5 Activity Compounds were tested on human Nav1.7 and Nav1.5 channels stably expressed in HEK 293 cells. Sodium Current Measurements on the PatchXpress 7000: To measure inactivated state block of sodium channels, test compounds were characterized in an automated PatchXpress® assay (Molecular Devices) using a double-pulse protocol on human Nav1.7 and Nav1.5 channels stably expressed in HEK 293 cells. […] IC50 values were determined by fitting to the Hill equation.
measure: IC50 (nM)
Number only, in nM; omit the unit.

See these solved cases before continuing.
| compound | IC50 (nM) |
| --- | --- |
| C[C@H](c1cccc(CCN)c1)n1c(=O)oc2cc(S(=O)(=O)Nc3cccc(F)n3)c(F)cc21 [Ex19-11] | 103 |
| Cc1cc2c(cc1S(=O)(=O)Nc1cccc(F)n1)oc(=O)n2[C@H](C)c1cccc2c1CNCC2 [Ex17-4] | 34 |
| O=c1oc2cc(S(=O)(=O)Nc3cccc(F)n3)c(F)cc2n1Cc1cccc2c1CNCC2F (single isomer, unassigned; enantiomer 1) [Ex5-10] | 961 |

Could you tell me which IC50 is on file for CNCC#Cc1cccc([C@@H](C)n2c(=O)oc3cc(S(=O)(=O)Nc4cccc(F)n4)c(F)cc32)c1 [Ex21-2] ?
245

###

// ratio of Nav 1.5:Nav 1.7 potency lookup, one value per entry
- tested target: human Nav1.5 (Homo sapiens)
- Construct: expressed in transfected cells
- protocol description: PatchXpress sodium current measurement, inactivated state block, Nav1.5
- Type: cell-based
- condition description: determined by PatchXpress measurement, HEK 293 cells
Simply state the number, no unit and no words.

See these solved cases before continuing.
| compound | observed result |
| --- | --- |
| CC(N)C#Cc1cccc([C@@H](C)n2c(=O)oc3cc(S(=O)(=O)Nc4cccc(F)n4)c(F)cc32)c1 (stereo partly shown) | 34 |
| CNCC#Cc1cccc([C@@H](C)n2c(=O)oc3cc(S(=O)(=O)Nc4cccc(F)n4)c(F)cc32)c1 | 122 |
| C[C@H](c1ccccc1C#CC1(N)CCCCC1)n1c(=O)oc2cc(S(=O)(=O)Nc3cccc(F)n3)c(F)cc21 | 95 |
| Cl.O=c1oc2cc(S(=O)(=O)Nc3cccc(F)n3)c(F)cc2n1Cc1cccc2c1CNCC2F (racemic) | 26 |
| C[C@H](c1cccc(CN)c1)n1c(=O)oc2cc(S(=O)(=O)Nc3cccc(F)n3)c(F)cc21 | 96 |
| C[C@H](c1ccccc1C1(F)CNC1)n1c(=O)oc2cc(S(=O)(=O)Nc3cccc(F)n3)c(F)cc21 | 648 |

Please find the next compound below.
Could you tell me which ratio of Nav 1.5:Nav 1.7 potency is on file for Cc1c(CCCN)cccc1[C@@H](C)n1c(=O)oc2cc(S(=O)(=O)Nc3cccc(F)n3)c(F)cc21 ?
297

###

- tested target: human Nav1.5 (Homo sapiens)
- Construct: expressed in transfected cells
- protocol description: PatchXpress sodium current measurement, inactivated state block, Nav1.5
- Format: cell-based
- condition description: determined by PatchXpress measurement, HEK 293 cells
// ratio of Nav 1.5:Nav 1.7 potency lookup, one value per entry
Simply state the number, no unit and no words.

Could you tell me which ratio of Nav 1.5:Nav 1.7 potency is on file for C[C@H](c1ccccc1C1CNC1)n1c(=O)oc2cc(S(=O)(=O)Nc3ccc(F)cn3)c(F)cc21 [Ex15-6] ?
207

Could you tell me which ratio of Nav 1.5:Nav 1.7 potency is on file for C[C@H](c1cccc(C#CC2(N)CCCCC2)c1)n1c(=O)oc2cc(S(=O)(=O)Nc3cccc(F)n3)c(F)cc21 [Ex21-4] ?
45

Could you tell me which ratio of Nav 1.5:Nav 1.7 potency is on file for C[C@H](c1ccccc1C1CN(S(C)(=O)=O)C1)n1c(=O)oc2cc(S(=O)(=O)Nc3cccc(F)n3)c(F)cc21 [Ex11-1] ?
34

Could you tell me which ratio of Nav 1.5:Nav 1.7 potency is on file for Cc1c(C#CCN)cccc1[C@@H](C)n1c(=O)oc2cc(S(=O)(=O)Nc3cccc(F)n3)c(F)cc21 [Ex21-22] ?
220

###

- tested target: human Nav1.5 (Homo sapiens, UniProt Q14524)
- Construct: expressed in transfected cells
- Sequence (Q14524 whole entry): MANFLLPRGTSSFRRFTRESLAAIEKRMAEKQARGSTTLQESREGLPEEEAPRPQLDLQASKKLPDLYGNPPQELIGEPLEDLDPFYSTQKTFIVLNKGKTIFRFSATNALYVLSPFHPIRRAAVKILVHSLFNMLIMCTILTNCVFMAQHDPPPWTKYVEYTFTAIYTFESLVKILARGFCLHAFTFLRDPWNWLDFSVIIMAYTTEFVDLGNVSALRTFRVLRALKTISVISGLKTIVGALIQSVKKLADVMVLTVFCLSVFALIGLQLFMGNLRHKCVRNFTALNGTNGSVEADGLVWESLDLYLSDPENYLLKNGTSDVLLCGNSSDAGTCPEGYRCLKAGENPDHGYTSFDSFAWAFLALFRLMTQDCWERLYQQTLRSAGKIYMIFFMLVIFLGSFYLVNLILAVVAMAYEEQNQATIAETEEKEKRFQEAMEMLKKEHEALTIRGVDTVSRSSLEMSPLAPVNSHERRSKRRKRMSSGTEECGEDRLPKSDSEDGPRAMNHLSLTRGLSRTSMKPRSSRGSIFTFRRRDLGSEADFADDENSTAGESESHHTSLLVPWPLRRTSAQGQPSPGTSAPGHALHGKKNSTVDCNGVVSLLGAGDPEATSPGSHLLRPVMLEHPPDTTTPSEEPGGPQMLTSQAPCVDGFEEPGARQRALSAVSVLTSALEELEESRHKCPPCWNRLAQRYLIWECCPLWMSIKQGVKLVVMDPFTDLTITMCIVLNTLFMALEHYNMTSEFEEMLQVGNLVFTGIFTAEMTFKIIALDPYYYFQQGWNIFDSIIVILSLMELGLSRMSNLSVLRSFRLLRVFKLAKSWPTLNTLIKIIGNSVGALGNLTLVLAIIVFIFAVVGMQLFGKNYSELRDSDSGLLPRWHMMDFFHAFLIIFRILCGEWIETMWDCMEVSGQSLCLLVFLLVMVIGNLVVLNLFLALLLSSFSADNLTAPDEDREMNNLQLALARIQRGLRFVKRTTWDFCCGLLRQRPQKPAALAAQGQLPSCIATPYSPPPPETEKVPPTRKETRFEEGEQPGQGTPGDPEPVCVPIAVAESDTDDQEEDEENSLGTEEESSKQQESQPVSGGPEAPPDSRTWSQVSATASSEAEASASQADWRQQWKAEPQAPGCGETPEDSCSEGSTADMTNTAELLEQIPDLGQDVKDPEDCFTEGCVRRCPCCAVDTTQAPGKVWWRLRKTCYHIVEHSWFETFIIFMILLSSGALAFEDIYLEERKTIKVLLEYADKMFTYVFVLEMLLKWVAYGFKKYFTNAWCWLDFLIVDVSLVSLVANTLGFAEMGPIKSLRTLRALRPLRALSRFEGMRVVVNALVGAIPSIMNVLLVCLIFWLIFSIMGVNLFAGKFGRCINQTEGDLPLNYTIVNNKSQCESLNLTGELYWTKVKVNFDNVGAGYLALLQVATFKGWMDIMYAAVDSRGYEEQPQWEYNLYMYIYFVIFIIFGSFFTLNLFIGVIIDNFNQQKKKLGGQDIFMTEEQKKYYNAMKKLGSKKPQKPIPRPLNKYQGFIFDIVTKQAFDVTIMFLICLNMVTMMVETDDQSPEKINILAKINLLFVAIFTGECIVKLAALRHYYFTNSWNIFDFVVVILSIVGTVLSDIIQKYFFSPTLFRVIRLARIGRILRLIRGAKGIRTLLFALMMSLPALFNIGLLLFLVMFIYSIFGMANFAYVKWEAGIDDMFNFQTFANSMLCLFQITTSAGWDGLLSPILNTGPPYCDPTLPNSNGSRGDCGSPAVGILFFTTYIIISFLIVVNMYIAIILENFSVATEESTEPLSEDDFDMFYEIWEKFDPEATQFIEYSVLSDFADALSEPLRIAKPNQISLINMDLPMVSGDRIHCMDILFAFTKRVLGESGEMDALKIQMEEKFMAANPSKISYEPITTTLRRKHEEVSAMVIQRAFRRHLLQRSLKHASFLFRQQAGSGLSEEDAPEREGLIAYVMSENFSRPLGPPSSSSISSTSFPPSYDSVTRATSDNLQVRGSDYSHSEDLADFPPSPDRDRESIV
- protocol description: PatchXpress sodium current measurement, inactivated state block, Nav1.5
- Assay type: cell-based
- condition description: determined by PatchXpress measurement, HEK 293 cells
measure: ratio of Nav 1.5:Nav 1.7 potency

See these solved cases before continuing.
| molecule | observed result |
| --- | --- |
| Cc1cccc([C@@H](C)n2c(=O)oc3cc(S(=O)(=O)Nc4cccc(F)n4)c(F)cc32)c1C1CCCN1 (stereo partly drawn) [Ex20-2] | 272 |
| C[C@H](c1cccc(C#CCNC2CCCCC2)c1)n1c(=O)oc2cc(S(=O)(=O)Nc3cccc(F)n3)c(F)cc21 [Ex21-6] | 27 |
| C[C@H](c1cccc(C#CCN)c1)n1c(=O)oc2cc(S(=O)(=O)Nc3cccc(F)n3)c(F)cc21 [Ex21-21] | 193 |
| C[C@H](c1cccc2c1CNCC2)n1c(=O)oc2cc(S(=O)(=O)Nc3cccc(F)n3)c(F)cc21.Cl [Ex3-5] | 158 |
| C[C@H](c1cccc(C2=CCNCC2)c1)n1c(=O)oc2cc(S(=O)(=O)Nc3cccc(F)n3)c(F)cc21 [Ex7-10] | 331 |

Checklist item: ratio of Nav 1.5:Nav 1.7 potency tested on human Nav1.5 (Homo sapiens, UniProt Q14524), entry C[C@H](c1ccccc1C1CCCN1)n1c(=O)oc2cc(S(=O)(=O)Nc3cccc(F)n3)c(F)cc21 (stereo partly drawn) [Ex20-1] , value?
120

Checklist item: ratio of Nav 1.5:Nav 1.7 potency tested on human Nav1.5 (Homo sapiens, UniProt Q14524), entry Cc1cc2c(cc1S(=O)(=O)Nc1cccc(F)n1)oc(=O)n2[C@H](C)c1cccc(C)c1C#C[C@@H]1CCCC[C@@H]1N [Ex21-25] , value?
167

Checklist item: ratio of Nav 1.5:Nav 1.7 potency tested on human Nav1.5 (Homo sapiens, UniProt Q14524), entry O=c1oc2cc(S(=O)(=O)Nc3cccc(F)n3)c(F)cc2n1Cc1cccc2c1CNCC2F (single isomer, unassigned; enantiomer 1) [Ex5-10] , value?
> 31

Checklist item: ratio of Nav 1.5:Nav 1.7 potency tested on human Nav1.5 (Homo sapiens, UniProt Q14524), entry Cc1cc2c(cc1S(=O)(=O)Nc1cccc(F)n1)oc(=O)n2Cc1cccc2c1CC(N)CC2 (single isomer, unassigned) [Ex17-5] , value?
310

Checklist item: ratio of Nav 1.5:Nav 1.7 potency tested on human Nav1.5 (Homo sapiens, UniProt Q14524), entry C[C@H](c1cccc(C#CCN2CCC2)c1)n1c(=O)oc2cc(S(=O)(=O)Nc3cccc(F)n3)c(F)cc21 [Ex21-13] , value?
258

Checklist item: ratio of Nav 1.5:Nav 1.7 potency tested on human Nav1.5 (Homo sapiens, UniProt Q14524), entry C[C@H](c1cccc2c1CNCC2)n1c(=O)oc2cc(S(=O)(=O)Nc3cccc(F)n3)ccc21.Cl [Ex2-5] , value?
316

Checklist item: ratio of Nav 1.5:Nav 1.7 potency tested on human Nav1.5 (Homo sapiens, UniProt Q14524), entry Cc1cc2c(cc1S(=O)(=O)Nc1cccc(F)n1)oc(=O)n2[C@H](C)c1cccc(C)c1C#C[C@H]1CCCC[C@H]1N [Ex21-26] , value?
192

Checklist item: ratio of Nav 1.5:Nav 1.7 potency tested on human Nav1.5 (Homo sapiens, UniProt Q14524), entry C[C@H](c1cccc(C2CCCN2)c1)n1c(=O)oc2cc(S(=O)(=O)Nc3cccc(F)n3)c(F)cc21 (stereo partly drawn) [Ex20-3] , value?
218

Checklist item: ratio of Nav 1.5:Nav 1.7 potency tested on human Nav1.5 (Homo sapiens, UniProt Q14524), entry C[C@H](c1cccc(C#CC2CCCN2)c1)n1c(=O)oc2cc(S(=O)(=O)Nc3cccc(F)n3)c(F)cc21 (stereo partly drawn) [Ex21-10] , value?
88

Checklist item: ratio of Nav 1.5:Nav 1.7 potency tested on human Nav1.5 (Homo sapiens, UniProt Q14524), entry Cc1cc2c(cc1S(=O)(=O)Nc1cccc(F)n1)oc(=O)n2[C@H](C)c1cccc(Br)c1 [Ex18-6] , value?
30

Checklist item: ratio of Nav 1.5:Nav 1.7 potency tested on human Nav1.5 (Homo sapiens, UniProt Q14524), entry C[C@H](c1ccccc1C1=CCC(N)CC1)n1c(=O)oc2cc(S(=O)(=O)Nc3cccc(F)n3)c(F)cc21 (stereo partly drawn) [Ex7-6] , value?
123

Checklist item: ratio of Nav 1.5:Nav 1.7 potency tested on human Nav1.5 (Homo sapiens, UniProt Q14524), entry Cc1cc2c(cc1S(=O)(=O)Nc1cccc(F)n1)oc(=O)n2[C@H](C)c1cccc(C#CCN)c1C [Ex21-24] , value?
240

Checklist item: ratio of Nav 1.5:Nav 1.7 potency tested on human Nav1.5 (Homo sapiens, UniProt Q14524), entry Cc1cc2c(cc1S(=O)(=O)Nc1cccc(F)n1)oc(=O)n2[C@H](C)c1cccc(C)c1Br [Ex18-8] , value?
102
